Recorded Maximum absorption wavelength (λmax (abs), nm) values for a group of compounds are listed next.
# ASSAY_SUMMARY: UV-VIS absorption and fluorescence emission spectra
# Format: physicochemical
# CONDITION_INFO: 0.1M phosphate buffer (1x PBS for 7d5); ± 1 nm error
Express your answer in nm, writing the number without its unit.

Q: Return Maximum absorption wavelength (λmax (abs), nm) (reported value) for this compound: CCN(CC)c1ccc2c(-c3ccc(S(=O)(=O)NCCCCCC(=O)NCC(O)C[n+]4cccc(CC(P(=O)(O)O)P(=O)(O)O)c4)cc3S(=O)(=O)O)c3ccc(=[N+](CC)CC)cc-3oc2c1 (centres unmarked) [5(6)-RhR-dRIS]
Result: 567.5

Q: Return Maximum absorption wavelength (λmax (abs), nm) (reported value) for this compound: CC1(C)C(C=CC=CC=C2N(CCCS(=O)(=O)O)c3ccc(S(=O)(=O)O)cc3C2(C)CCCCCC(=O)NCC(O)C[n+]2cccc(CC(O)(C(=O)O)P(=O)(O)O)c2)=[N+](CCCS(=O)(=O)O)c2ccc(S(=O)(=O)O)cc21 (centres unmarked) [AF647-RISPC]
Result: 648

Q: Return Maximum absorption wavelength (λmax (abs), nm) (reported value) for this compound: CCN(CC)c1ccc2c(-c3ccc(S(=O)(=O)NCCCCCC(=O)NCC(O)C[n+]4cccc(CC(O)(C(=O)O)P(=O)(O)O)c4)cc3S(=O)(=O)O)c3ccc(=[N+](CC)CC)cc-3oc2c1 (centres unmarked) [5(6)-RhR-RISPC]
Result: 568

Q: Return Maximum absorption wavelength (λmax (abs), nm) (reported value) for this compound: CC1(C)C(/C=C/C2=C(Oc3ccc(S(=O)(=O)O)cc3)C(=C/C=C3/N(CCCCS(=O)(=O)[O-])c4ccc(S(=O)(=O)[O-])cc4C3(C)C)/CCC2)=[N+](CCCCCC(=O)NCC(O)C[n+]2ccn(CC(O)(P(=O)(O)O)P(=O)(O)O)c2)c2ccc(S(=O)(=O)O)cc21 (centres unmarked) [Compound 800CW-ZOL]
Result: 774

Q: Return Maximum absorption wavelength (λmax (abs), nm) (reported value) for this compound: CCN(CC)c1ccc2c(-c3ccc(S(=O)(=O)NCCCCCC(=O)NCC(O)C[n+]4cccc(CC(O)(P(=O)(O)O)P(=O)(O)O)c4)cc3S(=O)(=O)O)c3ccc(=[N+](CC)CC)cc-3oc2c1 (centres unmarked) [5(6)-RhR-RIS]
Result: 567.5

Further cases:
Q: Return Maximum absorption wavelength (λmax (abs), nm) (reported value) for this compound: O=C(NCC(O)C[n+]1ccn(CC(O)(P(=O)(O)O)P(=O)(O)O)c1)c1ccc(-c2c3ccc(=O)cc-3oc3cc(O)ccc23)c(C(=O)O)c1 (centres unmarked) [Compound 5-FAM-ZOL]
Result: 493

Q: Return Maximum absorption wavelength (λmax (abs), nm) (reported value) for this compound: CN1/C(=C/C=C/C=C/C2=[N+](CCCCCC(=O)NCC(O)C[n+]3ccn(CC(O)(P(=O)(O)O)P(=O)(O)O)c3)c3ccc(S(=O)(=O)[O-])cc3C2(C)C)C(C)(C)c2cc(S(=O)(=O)[O-])ccc21 (centres unmarked) [Sulfo-Cy5-ZOL]
Result: 644

Q: Return Maximum absorption wavelength (λmax (abs), nm) (reported value) for this compound: CC1(C)C(C=CC=CC=C2N(CCCS(=O)(=O)O)c3ccc(S(=O)(=O)O)cc3C2(C)CCCCCC(=O)NCC(O)C[n+]2cccc(CC(O)(P(=O)(O)O)P(=O)(O)O)c2)=[N+](CCCS(=O)(=O)O)c2ccc(S(=O)(=O)O)cc21 (centres unmarked) [AF647-RIS]
Result: 648
